Test system: Athelia rolfsii
Experiment: Fungicidal activity against Athelia rolfsii assessed as fungal growth inhibition at 28 degC by poisoned food technique
Assay type: functional
Conditions: Agroathelia rolfsii; read-out: ED50 (the source's name)
Entries and their measured log10 EC50 follow.
All values: base-10 log of EC50 in µg/mL.

Clc1cccc(Cl)c1/C=N/CCCC/N=C/c1c(Cl)cccc1Cl; 1.34
Clc1ccc(/C=N/CCCC/N=C/c2ccc(Cl)cc2Cl)c(Cl)c1; 2.25
Fc1cccc(/N=C/c2ccc(Cl)cc2Cl)c1; 2.74
O=[N+]([O-])c1cccc(/C=N/c2cc(Cl)c(Cl)cc2Cl)c1; 1.34
O=[N+]([O-])c1cccc(/C=N/c2ccco2)c1; 2.30

Q) // returns reported log10 EC50 for input O=[N+]([O-])c1cccc(/C=N/c2ccccc2F)c1
A) 2.20

Q) Moving on to the next compound: Clc1cccc(Cl)c1/C=N/c1ccco1
A) 1.89

Q) Moving on to the next compound: Fc1ccccc1/N=C/c1ccc(Cl)cc1Cl
A) 1.80

Q) Moving on to the next compound: Fc1ccccc1/N=C/c1c(Cl)cccc1Cl
A) 1.66

Q) Moving on to the next compound: Fc1ccc(/N=C/c2ccc(Cl)cc2Cl)cc1
A) 1.57

Q) Moving on to the next compound: Fc1ccc(/N=C/c2c(Cl)cccc2Cl)cc1
A) 2.03

Q) Moving on to the next compound: Clc1ccc(/C=N/c2cc(Cl)c(Cl)cc2Cl)c(Cl)c1
A) 1.39

Q) Moving on to the next compound: Clc1cccc(Cl)c1/C=N/C1CCCCC1/N=C/c1c(Cl)cccc1Cl (stereo not given)
A) 1.60

Q) Moving on to the next compound: Clc1ccc(/C=N/C2CCCCC2/N=C/c2ccc(Cl)cc2Cl)c(Cl)c1 (stereo not given)
A) 1.53

Q) Moving on to the next compound: O=[N+]([O-])c1cccc(/C=N/c2ccc(F)cc2)c1
A) 2.21

Q) Moving on to the next compound: CCCCC(O)(Cn1cncn1)c1ccc(Cl)cc1Cl (stereo not given)
A) 0.36

Q) Moving on to the next compound: Clc1ccc(/C=N/CCC/N=C/c2ccc(Cl)cc2Cl)c(Cl)c1
A) 1.43

----------
Entries and their measured EC50 follow.
System: Macrophomina phaseolina
Assay: Fungicidal activity against Rhizoctonia bataticola assessed as fungal growth inhibition at 28 degC by poisoned food technique
Format: functional
Details: read-out: ED50 (the source's name)
Enter the number, and then the unit.

Guide cases for EC50, answers given:
Clc1cccc(Cl)c1/C=N/c1ccco1; 45.7 µg/mL
O=[N+]([O-])c1cccc(/C=N/c2ccco2)c1; 17.1 µg/mL

Q) // returns reported EC50 for input CCCCC(O)(Cn1cncn1)c1ccc(Cl)cc1Cl (stereo not drawn)
A) 1.7 µg/mL

Q) Moving on to the next compound: Clc1ccc(/C=N/C2CCCCC2/N=C/c2ccc(Cl)cc2Cl)c(Cl)c1 (stereo not drawn)
A) 18.3 µg/mL

Q) Moving on to the next compound: O=[N+]([O-])c1cccc(/C=N/c2cccc(F)c2)c1
A) 180 µg/mL

Q) Moving on to the next compound: Clc1ccc(/C=N/c2ccco2)c(Cl)c1
A) 23.1 µg/mL

Q) Moving on to the next compound: Clc1ccc(/C=N/CCCC/N=C/c2ccc(Cl)cc2Cl)c(Cl)c1
A) 100 µg/mL

Q) Moving on to the next compound: Fc1ccccc1/N=C/c1c(Cl)cccc1Cl
A) 45 µg/mL
